Biological target: Acetylcholinesterase (Rattus norvegicus)
Sequence (P37136 whole entry): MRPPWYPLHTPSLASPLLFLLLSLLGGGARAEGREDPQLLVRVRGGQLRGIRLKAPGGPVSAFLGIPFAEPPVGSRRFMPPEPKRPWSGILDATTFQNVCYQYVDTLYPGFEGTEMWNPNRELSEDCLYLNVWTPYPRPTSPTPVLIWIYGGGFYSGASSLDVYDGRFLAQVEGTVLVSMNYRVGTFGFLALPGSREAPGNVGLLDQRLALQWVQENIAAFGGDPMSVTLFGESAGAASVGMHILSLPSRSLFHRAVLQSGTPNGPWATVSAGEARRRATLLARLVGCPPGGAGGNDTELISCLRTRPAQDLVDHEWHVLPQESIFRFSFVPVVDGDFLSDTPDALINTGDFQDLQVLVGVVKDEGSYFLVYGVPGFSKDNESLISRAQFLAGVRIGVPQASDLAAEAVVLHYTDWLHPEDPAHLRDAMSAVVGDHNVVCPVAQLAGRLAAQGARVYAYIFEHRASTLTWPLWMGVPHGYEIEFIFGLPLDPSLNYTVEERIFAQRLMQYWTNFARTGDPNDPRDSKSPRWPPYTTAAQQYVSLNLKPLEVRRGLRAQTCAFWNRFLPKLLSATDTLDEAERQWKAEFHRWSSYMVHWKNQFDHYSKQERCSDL
Recorded log10 IC50 by entry
Scale type: logarithmic (base 10). Underlying IC50 unit: nM.

In the examples that follow, each entry is paired with its recorded log10 IC50.
                                   compound  test_result
0  C/C=C1\[C@H]2C=C(C)C[C@]1(N)c1ccc(=O)[nH]c1C2         1.81
1  COc1ccc(C(=O)NCCCCCN[C@H]2CCCc3[nH]c(=O)ccc32)cc1OC         4.08
2  COc1cc2c(cc1OC)C(=O)C(CCCCCN[C@H]1CCCc3[nH]c(=O)ccc31)C2 (mixture of isomers)         2.27
3  COc1ccc(OCCCCCN[C@H]2CCCc3[nH]c(=O)ccc32)cc1OC         2.77

Now take the following compound into account.
Reported log10 IC50 ( COc1ccc(C(=O)OCCCCCN[C@H]2CCCc3[nH]c(=O)ccc32)cc1OC ) = 3.86

###

Organism: Rattus norvegicus
Experiment: Inhibition of BuChE in Sprague-Dawley rat serum at 1 mM by Ellman's method
Type: cell-free
The source made the active and inactive calls. The calls are words filed in the database; no cut-off is given here.
PARAMETER_MEASURED: inhibition

In the examples that follow, each entry is paired with its recorded inhibition.
                                   compound  test_result
0  COc1cc2c(cc1OC)C(=O)C(CCCCN[C@H]1CCCc3[nH]c(=O)ccc31)C2 (mixture of isomers)     inactive
1  COc1cc2c(cc1OC)C(=O)C(CCCCCN[C@H]1CCCc3[nH]c(=O)ccc31)C2 (mixture of isomers)     inactive
2  COc1cc2c(cc1OC)C(=O)C(CCCN[C@H]1CCCc3[nH]c(=O)ccc31)C2 (mixture of isomers)     inactive
3  COc1cc2c(cc1OC)C(=O)C(CCCCN[C@@H]1CCCc3[nH]c(=O)ccc31)C2 (mixture of isomers)     inactive

Reported inhibition ( COc1cc2c(cc1OC)C(=O)C(CCCCCCN[C@H]1CCCc3[nH]c(=O)ccc31)C2 (mixture of isomers) ) = inactive
